biological target: RSV F protein (purified) (respiratory syncytial virus); experiment: SPR (BIAcore), F protein immobilised
RECORDED ENDPOINT: kon (M⁻¹ s⁻¹)
Numbers only here, please. The scale is M⁻¹ s⁻¹.

P12f4 Fab (Fab, V domains shown) VH: QVTLRESGPALVKPTQTLTLTCTFSGFSLSTPGMSVGWIRQPPGKALEWLADIWWDGKKHYNPSLKDRLTISKDTSKNQVVLKVTNMDPADTATYYCARDMIFNFYFDVWGQGTTVTVSS VL: DIQMTQSPSTLSASVGDRVTITCSLSSRVGYMHWYQQKPGKAPKLLIYDTRGLPSGVPSRFSGSGSGTEFTLTISSLQPDDFATYYCFQGSGYPFTFGGGTKVEIK	527000

Shift focus to the following entry.
What does the data say about its kon? Entry: 1X-493L1FR Fab (Fab, V domains shown, also called IX-493L1FR) VH: QVTLRESGPALVKPTQTLTLTCTFSGFSLSTSGMSVGWIRQPPGKALEWLADIWWDDKKDYNPSLKSRLTISKDTSKNQVVLKVTNMDPADTATYYCARSMITNWYFDVWGQGTTVTVSS VL: DIQMTQSPSTLSASVGDRVTITCSASSSVGYMHWYQQKPGKAPKLLIYDTSKLASGVPSRFSGSGSGTEFTLTISSLQPDDFATYYCFQGSGYPFTFGGGTKVEIK
185000
